pIC50: −log10 of the molar value.
Form: system (mouse Smoothened receptor (Mus musculus, UniProt P56726)), quantity (pIC50), values below.

Some solved entries appear below for comparison.
>  <Compound>
N#Cc1ccc(N2CCN(c3nnc(Cc4cccc(Br)c4)c4ccccc34)CC2)nc1 [Example 67]

>  <Target system>
mouse Smoothened receptor (Mus musculus, UniProt P56726)
Sequence (P56726 33-793): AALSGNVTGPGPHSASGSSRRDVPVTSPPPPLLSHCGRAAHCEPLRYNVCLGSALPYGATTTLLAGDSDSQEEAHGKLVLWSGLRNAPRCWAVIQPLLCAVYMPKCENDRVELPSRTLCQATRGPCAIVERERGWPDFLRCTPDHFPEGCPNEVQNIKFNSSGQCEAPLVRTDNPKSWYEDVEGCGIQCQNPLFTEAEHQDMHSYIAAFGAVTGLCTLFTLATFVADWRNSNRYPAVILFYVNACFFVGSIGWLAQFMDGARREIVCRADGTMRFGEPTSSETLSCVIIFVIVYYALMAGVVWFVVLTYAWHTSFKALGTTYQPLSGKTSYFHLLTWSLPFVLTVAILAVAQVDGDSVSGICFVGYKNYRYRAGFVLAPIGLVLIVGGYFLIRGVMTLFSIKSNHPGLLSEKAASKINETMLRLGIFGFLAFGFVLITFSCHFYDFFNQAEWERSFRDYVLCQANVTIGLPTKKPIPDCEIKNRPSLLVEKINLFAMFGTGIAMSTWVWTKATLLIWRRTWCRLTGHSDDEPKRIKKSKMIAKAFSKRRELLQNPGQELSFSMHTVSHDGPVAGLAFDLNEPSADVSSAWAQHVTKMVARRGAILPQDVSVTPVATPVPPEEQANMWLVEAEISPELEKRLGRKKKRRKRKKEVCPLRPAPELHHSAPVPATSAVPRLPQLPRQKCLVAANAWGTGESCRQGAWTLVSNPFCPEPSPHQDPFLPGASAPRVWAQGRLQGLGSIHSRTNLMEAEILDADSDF

>  <pIC50>
> 7.00

$$$$
>  <Compound>
COc1ccc(CN2Cc3c(Cc4ccccc4)nnc(N4CCN(c5ccc(C(F)(F)F)cn5)CC4)c3C2)cc1 [Example 243]

>  <Target system>
mouse Smoothened receptor (Mus musculus, UniProt P56726)

>  <pIC50>
6.00 to 7.00

$$$$
>  <Compound>
CC(=O)c1cnc(N2CCN(c3nnc(Cc4ccccc4)c4ccccc34)CC2)cn1 [Example 153]

>  <Target system>
mouse Smoothened receptor (Mus musculus, UniProt P56726)

>  <pIC50>
> 7.00

$$$$
>  <Compound>
CCOC(=O)c1cnc(N2CCN(c3nnc(Cc4ccccc4)c4ccccc34)CC2)nc1C(F)(F)F [Example 137]

>  <Target system>
mouse Smoothened receptor (Mus musculus, UniProt P56726)

>  <pIC50>
> 7.00

$$$$
>  <Compound>
O=C(c1ccc(N2CCN(c3nnc(Cc4ccccc4)c4ccccc34)CC2)nc1)N1CCSC1 [Example 54p]

>  <Target system>
mouse Smoothened receptor (Mus musculus, UniProt P56726)

>  <pIC50>
> 7.00

$$$$

Value sought: pIC50, system mouse Smoothened receptor (Mus musculus, UniProt P56726), item N#Cc1ccc(N2CCN(c3nnc(Cc4cccc(Cl)c4)c4ccccc34)CC2)nc1 [Example 60] . Result: > 7.00

Value sought: pIC50, system mouse Smoothened receptor (Mus musculus, UniProt P56726), item FC(F)(F)c1ccc(N2CCN(c3nnc(Cc4ccccc4)c4ccccc34)CC2)cc1 [Example 55] . Result: 6.00 to 7.00

Value sought: pIC50, system mouse Smoothened receptor (Mus musculus, UniProt P56726), item Cc1ccccc1Cc1nnc(N2CCN(c3ccc(C(C)(C)O)cn3)CC2)c2ccccc12 [Example 194] . Result: > 7.00

Value sought: pIC50, system mouse Smoothened receptor (Mus musculus, UniProt P56726), item CC(=O)NCc1ccc(N2CCN(c3nnc(Cc4ccccc4)c4ccccc34)[C@@H](C)C2)nc1 [Example 216] . Result: > 7.00

Value sought: pIC50, system mouse Smoothened receptor (Mus musculus, UniProt P56726), item O=C(NCC1CCCCC1)c1ccc(N2CCN(c3nnc(Cc4ccccc4)c4ccccc34)CC2)nc1 [Example 54m] . Result: > 7.00

Value sought: pIC50, system mouse Smoothened receptor (Mus musculus, UniProt P56726), item COC(=O)CNC(=O)c1ccc(N2CCN(c3nnc(Cc4ccccc4)c4ccccc34)CC2)nc1 [Example 54r] . Result: > 7.00
